Experimental System: T1, GFP-9S library array, motif 4 ND N98W;D124S (synthetic construct, N98W;D124S)
T1 chain: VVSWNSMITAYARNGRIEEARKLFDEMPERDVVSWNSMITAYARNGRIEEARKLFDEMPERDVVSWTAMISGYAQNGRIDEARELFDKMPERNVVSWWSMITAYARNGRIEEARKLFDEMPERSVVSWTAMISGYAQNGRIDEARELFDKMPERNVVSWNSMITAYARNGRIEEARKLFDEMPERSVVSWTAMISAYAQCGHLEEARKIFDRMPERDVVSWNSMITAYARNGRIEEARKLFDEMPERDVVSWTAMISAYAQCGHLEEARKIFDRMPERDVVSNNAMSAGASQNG
Experimental Protocol: high-throughput RNA pulldown from lysate on Ni-NTA beads; HRP: 50 mM Tris pH 8, 150 mM NaCl, 1 mM beta-mercaptoethanol, 50 ug/ml BSA, 3 ug/ml yeast RNA, 0.5% heparin; ITC and FP: Tris pH 8, 200 mM KCl, 5% glycerol; MST: 50 mM Tris pH 8, 200 mM NaCl, 1 mM DTT, BSA, heparin, 0.05% Tween 20
Assay Context: tags: N-terminal His-eGFP; label: 5' IRDye 800CW
Listing of recorded Kd by entry.
Reported Endpoint: Kd (nM)

Binder | Numeric Readout
AUUAUACGUGA (ssRNA) [IR-rpoA-U] | 263
AUUAAACGUGA (ssRNA) [IR-rpoA-A] | 247

From: paper PMC8809517
